Data provenance is ChEMBL document CHEMBL1777772.

Listed next: entries and their corresponding IC50.
Target: Neprilysin (Homo sapiens, UniProt P08473)
Sequence (P08473 whole entry): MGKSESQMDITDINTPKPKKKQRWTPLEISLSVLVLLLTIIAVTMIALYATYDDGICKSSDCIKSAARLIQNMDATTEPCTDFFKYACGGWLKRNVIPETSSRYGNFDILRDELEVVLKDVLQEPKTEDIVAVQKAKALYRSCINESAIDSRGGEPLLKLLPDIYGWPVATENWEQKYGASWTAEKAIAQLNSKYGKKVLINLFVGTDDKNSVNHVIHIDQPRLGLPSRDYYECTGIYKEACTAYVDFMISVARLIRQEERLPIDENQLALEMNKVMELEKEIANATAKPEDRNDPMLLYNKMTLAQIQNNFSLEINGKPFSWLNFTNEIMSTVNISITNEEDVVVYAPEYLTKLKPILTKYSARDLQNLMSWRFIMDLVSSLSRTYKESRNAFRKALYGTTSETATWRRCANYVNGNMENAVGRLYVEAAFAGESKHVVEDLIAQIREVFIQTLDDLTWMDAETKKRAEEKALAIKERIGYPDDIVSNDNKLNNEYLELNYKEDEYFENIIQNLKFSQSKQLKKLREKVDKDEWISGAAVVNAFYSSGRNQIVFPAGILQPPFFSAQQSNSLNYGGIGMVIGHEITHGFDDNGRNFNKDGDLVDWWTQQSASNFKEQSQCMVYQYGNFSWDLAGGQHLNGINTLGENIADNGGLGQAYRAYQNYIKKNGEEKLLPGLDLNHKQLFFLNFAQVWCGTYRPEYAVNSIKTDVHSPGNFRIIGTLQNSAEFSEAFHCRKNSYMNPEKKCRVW
Answer with a number only, understood to be in µM.

Please review the following examples before continuing.
> print(dat)
                  compound.structure.string  units  reading
1  CCC[C@H](NC1(C(=O)N[C@@H](Cc2nc(CC)co2)C(=O)O)CCCC1)C(=O)O     µM    0.022
2  COCC[C@H](NC1(C(=O)N[C@@H](Cc2ncc(-c3ccc(Cl)cc3)o2)C(=O)O)CCCC1)C(=O)O     µM   0.0003
3  COCCOC[C@H](CC1(C(=O)N[C@H]2CC[C@@H](C(=O)O)CC2)CCCC1)C(=O)O     µM   0.0078
4  CCC[C@H](NC1(C(=O)N[C@@H](Cc2nc(CC(C)C)co2)C(=O)O)CCCC1)C(=O)O     µM     0.02

Problem: Fill in: IC50 of CC(C)CC[C@H](N[C@@H](CCc1ccccc1)C(=O)O)C(=O)N[C@@H](Cc1ccc(-c2ccccc2)cc1)C(=O)O is ___
Result: 0.028

Problem: Now consider COCC[C@H](NC1(C(=O)N[C@@H](Cc2nc(-c3ccccc3)no2)C(=O)O)CCCC1)C(=O)O .
Result: 0.0019
